molecular target: myeloperoxidase (MPO) (Homo sapiens); test: MPO + Cl halogenation inhibition (MCD assay); format: biochemical; conditions: chloride as substrate
Sequence (P05164 49-745): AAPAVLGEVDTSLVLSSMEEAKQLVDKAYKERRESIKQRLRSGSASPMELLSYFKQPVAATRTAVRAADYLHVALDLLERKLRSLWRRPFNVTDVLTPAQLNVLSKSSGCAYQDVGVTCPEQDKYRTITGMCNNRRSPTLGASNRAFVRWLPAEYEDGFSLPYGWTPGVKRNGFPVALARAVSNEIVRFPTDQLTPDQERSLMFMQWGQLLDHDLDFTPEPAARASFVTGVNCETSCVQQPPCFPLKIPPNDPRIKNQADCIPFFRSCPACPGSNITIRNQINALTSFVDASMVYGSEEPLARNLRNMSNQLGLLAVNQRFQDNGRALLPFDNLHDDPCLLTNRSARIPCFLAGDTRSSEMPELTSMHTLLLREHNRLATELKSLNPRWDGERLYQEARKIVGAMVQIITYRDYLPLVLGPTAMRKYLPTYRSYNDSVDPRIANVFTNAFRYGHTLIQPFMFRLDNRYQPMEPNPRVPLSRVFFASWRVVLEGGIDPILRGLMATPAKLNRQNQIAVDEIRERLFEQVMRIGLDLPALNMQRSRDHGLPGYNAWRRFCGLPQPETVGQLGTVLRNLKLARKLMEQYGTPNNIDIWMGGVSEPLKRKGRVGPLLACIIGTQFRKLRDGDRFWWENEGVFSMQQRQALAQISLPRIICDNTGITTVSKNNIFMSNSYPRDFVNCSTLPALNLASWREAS
pIC50: −log10 of the molar value.
metric: pIC50

compound	pIC50
NNC(=O)CNc1ccc(Cl)cc1 [(2), 4-chloro-phenylaminoethane-hydrazide]	5.71
NNC(=O)CNc1ccc(F)cc1F	5.18
NNC(=O)CNc1ccc(F)c(Cl)c1	5.62
Cc1ccc(NCC(=O)NN)cc1 [(8), 4-methyl-phenylaminoethane-hydrazide]	4.49
NNC(=O)CNc1cccc(Br)c1 [(5), 3-bromo-phenylaminoethane-hydrazide]	5.43

I. NNC(=O)CNc1ccc(F)cc1 [(1), 4-fluoro-phenylaminoethane-hydrazide]
II. NNC(=O)CNc1ccccc1 [Compound (6), phenylaminoethane-hydrazide]
Exercise: Lower pIC50: I or II ? Kindly state the label of the option you pick.
Solution: II
(II: 4.34, I: 5.27)

###

target: eosinophil peroxidase (EPO) (Homo sapiens, UniProt P11678); construct: 20 nM of EPO; assay: EPO bromination activity, monochlorodimedon (MCD) assay; type: biochemical; conditions: Example 2, tests performed as in Example 1; read-out: IC50 value (EPO)
metric: pIC50
In textbook form, pIC50 equals minus log to base ten of the concentration in mol/L.

Exercise: Determine its reported pIC50: NNC(=O)c1ccncc1 [isoniazide, pyridine-4-carbohydrazide, reference compound]
Solution: 5.22

###

molecular target: eosinophil peroxidase (EPO) (Homo sapiens); construct: 20 nM of EPO; assay: EPO bromination activity, monochlorodimedon (MCD) assay; format: biochemical; conditions: Example 3, same protocol as Example 1; read-out: IC50 EPO/Br
pIC50: −log10 of the molar value.
metric: pIC50

Check out these entries, answers already filled in.
molecule	pIC50
NNC(=O)COc1ccc(F)cc1 [PD09, 2-(4-fluorophenoxy)acetohydrazide]	5.57
NNC(=O)CCc1ccccc1O [PD20, 3-(2-hydroxyphenyl)propanohydrazide]	5.51
NNC(=O)CSc1ccc(Cl)cc1	5.92

a. O=C(O)CNc1ccccc1F
b. NNC(=O)COc1ccccc1Br [PD17, 2-(2-bromophenoxy)acetohydrazide]
c. O=C(O)CNc1ccc(Cl)cc1 [PD02, 2-[(4-chlorophenyl)amino]acetic acid]
Exercise: Arrange these molecules by their pIC50, starting with the largest number. Hello, could you send the labels back in the order asked? Thank you.
Solution: c, a, b

###

Target: eosinophil peroxidase (EPO) (Homo sapiens)
Construct: 20 nM of EPO
Sequence (P11678 140-715): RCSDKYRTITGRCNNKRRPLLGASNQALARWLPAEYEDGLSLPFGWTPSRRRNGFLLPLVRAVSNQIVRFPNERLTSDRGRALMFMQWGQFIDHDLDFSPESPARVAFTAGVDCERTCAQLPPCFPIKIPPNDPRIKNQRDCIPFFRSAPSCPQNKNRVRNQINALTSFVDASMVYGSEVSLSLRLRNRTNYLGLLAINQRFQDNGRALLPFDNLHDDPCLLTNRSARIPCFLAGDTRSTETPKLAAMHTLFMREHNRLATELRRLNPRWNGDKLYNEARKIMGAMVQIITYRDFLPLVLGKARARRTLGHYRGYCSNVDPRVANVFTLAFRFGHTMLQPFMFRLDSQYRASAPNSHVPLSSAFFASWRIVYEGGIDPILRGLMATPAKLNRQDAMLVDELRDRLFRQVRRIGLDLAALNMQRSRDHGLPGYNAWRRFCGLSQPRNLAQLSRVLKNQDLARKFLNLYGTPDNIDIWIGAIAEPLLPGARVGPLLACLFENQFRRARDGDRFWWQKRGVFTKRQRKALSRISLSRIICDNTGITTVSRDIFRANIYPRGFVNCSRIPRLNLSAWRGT
Assay: EPO bromination activity, monochlorodimedon (MCD) assay
Assay type: biochemical
Settings: bromide oxidation, MCD assay at 290 nm, 100 mM bromide, 20 nM EPO, pH 7.0; read-out: IC50 EPO + Br
metric: IC50 (nM)

Check out these entries, answers already filled in.
compound	IC50 / nM
Cc1ccc(NCC(=O)NN)cc1 [(8), 4-methyl-phenylaminoethane-hydrazide]	2270
NNC(=O)CNc1ccc(Cl)cc1 [(2), 4-chloro-phenylaminoethane-hydrazide]	24
NNC(=O)CNc1ccc(F)c(Cl)c1	19

a. NNC(=O)CNc1ccc(F)cc1 [(1), 4-fluoro-phenylaminoethane-hydrazide]
b. NNC(=O)CNc1ccccc1 [Compound (6), phenylaminoethane-hydrazide]
c. NNC(=O)CNc1ccccc1F [(3), 2-fluoro-phenylaminoethane-hydrazide]
d. NNC(=O)CNc1cccc(Br)c1 [(5), 3-bromo-phenylaminoethane-hydrazide]
e. NNC(=O)CNc1ccc(F)cc1F
Exercise: List by increasing IC50. Hello, could you send the labels back in the order asked? Thank you.
Solution: c, d, e, a, b
(c: 9 nM, d: 17 nM, e: 34 nM, a: 240 nM, b: 2290 nM)

Taken from patent US20130065962A1.
